test system: SNB-75 CNS; test: NCI-60 one-dose screen, 48 h (100 = growth as untreated, 0 = no growth, -100 = all killed); details: 10 µM unless noted
The panel holds about 83,000 compounds, 20% with a hit somewhere; the sample as a whole holds those more often.
Mark Not fulfilled for growth values under 20%, and Fulfilled for everything at or above.

## Input Determine whether measured growth meets or exceeds 20% for Cc1ccc(NC(=O)c2cc(/C=C/C(=O)NO)cc(C(F)(F)F)c2)cc1Nc1nccc(-c2cccnc2)n1
## Output Not fulfilled

## Input Could you verify whether the entry Cn1ccnc1C(=O)/C=C/c1ccc(C(=O)Nc2ccc(NC(=O)CCNC(=O)c3csc(Br)n3)cc2)cc1 shows growth of no less than 20%?
## Output Fulfilled

## Input # check: growth of O=C(C[n+]1ccnc2ccccc21)c1ccc(O)c(O)c1 is greater than or equal to 20%
## Output Fulfilled

## Input Hi, just wondering whether Cc1ccc(S(=O)(=O)N/N=C/c2cn(-c3ccc(F)cc3)nc2-c2ccc(S(C)(=O)=O)cc2)cc1 shows growth of 20% or higher.
## Output Fulfilled

## Input Say whether Cc1ccc(-c2csc(N/N=C/c3nc4ccccc4n3C3CC3)n2)cc1 shows growth of 20% or more.
## Output Fulfilled

## Input Would you say CCN1C(=O)N(CC)C2C1NN=C1SC(c3ccccc3)=CC(=O)N12 (centres undefined) shows growth at minimum 20%?
## Output Not fulfilled

## Input Check this compound for growth at or above 20%: CN1CCN(c2ccc(C(=O)/C=C/c3ccc(Cl)c(C(F)(F)F)c3)cc2)CC1
## Output Fulfilled

## Input Quick check, growth >= 20%? CS(=O)(=O)c1nccc(-c2c(-c3ccc(F)c(OCCc4ccc(F)cc4)c3)nc3sccn23)n1
## Output Fulfilled

----------
The reader will find reported growth values listed item by item below.
system: UACC-62 melanoma; test: NCI-60 one-dose screen, 48 h (100 = growth as untreated, 0 = no growth, -100 = all killed); details: 10 µM unless noted
The panel holds about 83,000 compounds, 20% with a hit somewhere; the sample as a whole holds those more often. The source made the active and inactive calls. How the source made its calls: active means growth percent below 10; inactive means the rest.

Some molecules with known growth results, for comparison:
CCN(CC)CCN1C(=O)c2c(c3c4cccnc4[nH]c3c3ccc4ccccc4c23)C1=O; 69.2% (inactive)
C[C@H]1[C@H](C)CC[C@]2(COC(=O)c3cccnc3)CC[C@]3(C)C(=CC[C@@H]4[C@@]5(C)CCCNC(C)(C)[C@@H]5CC[C@]43C)[C@H]12; 53.4% (inactive)
CC[C@@](C)(NC(=O)C(C)(C)NC(=O)[C@@H](NC(=O)[C@@H]1CCCN1C(=O)C(C)(C)NC(=O)[C@H](CC(C)C)NC(=O)CNC(=O)C(C)(C)NC(=O)[C@@H](NC(=O)C(C)(C)NC(=O)[C@H](CCC(N)=O)NC(=O)[C@H](C)NC(=O)C(C)(C)NC(=O)[C@H](C)NC(=O)C(C)(C)NC(=O)[C@H](C)NC(=O)C(C)(C)NC(C)=O)C(C)C)C(C)C)C(=O)N[C@@H](CCC(N)=O)C(=O)N[C@@H](CCC(N)=O)C(=O)N[C@H](CO)CC1CCCCC1; 31.1% [5 µM] (inactive)

## Input Give the measured growth of CC(C)(C)n1nnnc1C(Nc1nccs1)c1cc2cccc3ccc4cccc1c4c32 (centres undefined) .
## Output 48.8% (inactive)

## Input Quick one: growth of CCCCCCNC(=O)Oc1ccc(/C(=C(/C)c2ccc(Cl)cc2)c2ccc(OCCN3CCCC3)cc2)cc1 ?
## Output 20.8% (inactive)

## Input Return reported growth; argument: O=C(Nc1ccc(Cl)cc1)Nc1nc2ccc([N+](=O)[O-])cc2s1
## Output -30.2% (active)

## Input Which measured growth value corresponds to N#Cc1c(-c2ccccc2)cc(-c2c[nH]c3ccccc23)nc1-c1c[nH]c2ccccc12 ?
## Output 94.9% (inactive)

## Input Given the entry CNC(=O)c1cc(Oc2ccc3nc(NC(=O)c4ccc(CN5CCN(C)CC5)c(C(F)(F)F)c4)sc3c2)ccn1 , report its measured growth.
## Output 56.3% (inactive)

## Input Entry under review: CCNC(=NCCCN(C)C)N/C(N)=N/c1nc2ccccc2s1 . Reported growth?
## Output 97.6% (inactive)
